# TARGET DESC: T1, human GPVI (full-length) expressed on stably transfected CHO cells (human, UniProt Q9HCN6 21-339)
# T1 chain: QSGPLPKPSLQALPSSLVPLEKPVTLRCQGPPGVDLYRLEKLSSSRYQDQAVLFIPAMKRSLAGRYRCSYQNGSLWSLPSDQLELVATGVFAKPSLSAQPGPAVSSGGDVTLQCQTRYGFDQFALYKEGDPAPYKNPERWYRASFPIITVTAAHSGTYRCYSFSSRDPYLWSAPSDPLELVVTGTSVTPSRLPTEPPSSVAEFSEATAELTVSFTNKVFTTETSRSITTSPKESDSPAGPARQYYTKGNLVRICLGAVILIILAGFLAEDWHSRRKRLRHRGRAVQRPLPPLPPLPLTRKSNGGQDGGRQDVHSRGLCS
# ASSAY REMARKS: Cell ELISA (MSD) on CHO cells expressing GPVI
Below, each entry is listed with its recorded EC50.

>  <BINDER>
Reference Control Antibody RefFab #1 (humanized GPVI antibody of WO2011073954A2, SANOFI) (Fab, V domains shown, Cloned into mammalian Fab expression vectors; a glycine-serine linker (G4S)2 was added to the C-terminus of the Fab heavy chain) VH: EVQLLESGPGLVAPSGSLSITCTVSGFSLTGYGVNWVRQPPGKGLEWLGMIWGDGSTDYQSTLKSRLSISKDNSKSQVFLKMNSLRTDDTARYYCARDLPMDYWGLGTSVTVSS VL: DIQMTQSPSSLSASVGGRVTITCKASQDINKYIAWYQHKPGKGPSLLIHYTSTLQPGVPSRFSGSGSGRDYSFSISNLQPEDIATYYCLQYANLLTFGGGTKLEIKR

>  <EC50 [nM]>
2.8

$$$$
>  <BINDER>
Fab #1 comprising a modified heavy chain constant region (Fab, V domains shown, Human Fab from the Ylanthia library; produced in HKB11 cells; also called Fab #1 mod; HC) VH: QVQLVQSGAEVKKPGASVKVSCKASGYTFTSHYMHWVRQAPGQGLEWMGLIEPSEGETEYAQRFQGRVTMTRDTSTSTVYMELSSLRSEDTAVYYCARDSSRSYPLGFDIWGQGTLVTVSS VL: QSVLTQPPSVSAAPGQKVTISCSGSSSNIGNNYVSWYQQLPGTAPKLLIYDNNKRPSGIPDRFSGSKSGTSATLGITGLQTEDEADYYCAAWDFRSSRWVFGGGTKLTVLG

>  <EC50 [nM]>
0.89

$$$$
